- experimental.system: T1, CEACAM1 (Sino Biological) (human, UniProt P13688 35-428, limits assumed)
- T1 construct: may be the same as CEACAM1-HIS; also called hCEACAM1; biotinylated soluble CEACAM1
- T1 sequence: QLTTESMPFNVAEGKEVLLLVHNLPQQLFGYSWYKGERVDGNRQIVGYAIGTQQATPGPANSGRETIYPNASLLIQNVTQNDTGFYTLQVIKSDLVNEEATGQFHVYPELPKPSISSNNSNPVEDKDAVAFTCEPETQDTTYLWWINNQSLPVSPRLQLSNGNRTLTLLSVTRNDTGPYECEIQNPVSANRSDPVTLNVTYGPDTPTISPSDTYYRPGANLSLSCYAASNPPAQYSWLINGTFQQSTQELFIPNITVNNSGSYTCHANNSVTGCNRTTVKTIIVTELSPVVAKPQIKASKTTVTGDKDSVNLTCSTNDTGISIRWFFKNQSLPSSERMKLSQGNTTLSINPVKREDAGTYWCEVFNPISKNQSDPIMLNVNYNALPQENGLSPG
- experiment: SPR single-cycle
reported.metric: Kd (nM)
Reply with just the number (in nM).

binder: He14/L18 (antibody, IgG4, V domains shown, IgG4 S241P, kappa) VH: EVQLLESGGGLVQPGGSLRLSCAASGFSFSDYYLYWVRQAPGKGLEWVATISVGGGQTSYADSVKGRFTISRDNSKNTLYLQMNSLRAEDTAMYYCTRGLYYGPSWVAYWGQGTLVTVSS VL: DIVMTQSPDSLAVSLGERATINCKSSQSLLNSANQKNYLAWYQQKPGQPPKLLIYFASTRESGVPDRFSGSGSGTDFTLTISSLQAEDVAVYYCQSHFPYPFTFGGGTKVEIK
u: nM
reported: 91

Prompt: // lookup Kd for He14/L17 (antibody, IgG4, V domains shown, IgG4 S241P, kappa) VH: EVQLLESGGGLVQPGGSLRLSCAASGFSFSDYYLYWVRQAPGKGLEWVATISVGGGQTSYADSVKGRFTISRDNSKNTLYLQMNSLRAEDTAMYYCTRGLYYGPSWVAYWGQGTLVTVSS VL: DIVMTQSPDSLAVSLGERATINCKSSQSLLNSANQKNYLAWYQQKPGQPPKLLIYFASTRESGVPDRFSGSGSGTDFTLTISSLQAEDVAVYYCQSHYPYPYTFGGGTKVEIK
Completion: 97
